Tested on: Acinetobacter baumannii
assayName: Antibacterial activity against carbapenem-resistant Acinetobacter baumannii CRAB-1 clinical isolate incubated for 16 to 24 hrs by broth microdilution assay
Assay type: functional
particulars: time 16-24 hrs
observationType: MIC (µg/mL)
Answers are plain numbers, in µg/mL.

Input: Give MIC for the following compound: CN[C@H](CC(C)C)C(=O)N[C@H]1C(=O)N[C@@H](CC(N)=O)C(=O)N[C@H]2C(=O)N[C@H]3C(=O)N[C@H](C(=O)N[C@H](C(=O)NCCC[S+](C)CC(O)COc4ccc(-c5ccc(C(F)(F)F)cc5)cc4)c4cc(O)cc(O)c4-c4cc3ccc4O)[C@H](O)c3ccc(c(Cl)c3)Oc3cc2cc(c3O[C@@H]2O[C@H](CO)[C@@H](O)[C@H](O)[C@H]2O[C@H]2C[C@](C)(N)[C@H](O)[C@H](C)O2)Oc2ccc(cc2Cl)[C@H]1O.O=C([O-])C(F)(F)F (some centres not stated)
Output: 128

----------
Answer each item with its documented AUC(0-t).
assayName: AUClast in CD-1 mouse at 5 mg/kg, iv measured for 0.05 to 24 hrs by UPLC analysis
Type: ADME, organism-based
particulars: in vivo, time 0.05-24 hrs
Numbers only, in ng·h/mL.

compound	AUC(0-t) / ng·h/mL
CN[C@H](CC(C)C)C(=O)N[C@H]1C(=O)N[C@@H](CC(N)=O)C(=O)N[C@H]2C(=O)N[C@H]3C(=O)N[C@H](C(=O)N[C@H](C(=O)O)c4cc(O)c(CNCCC[S+](C)CC(O)COc5ccc(-c6ccc(C(F)(F)F)cc6)cc5)c(O)c4-c4cc3ccc4O)[C@H](O)c3ccc(c(Cl)c3)Oc3cc2cc(c3O[C@@H]2O[C@H](CO)[C@@H](O)[C@H](O)[C@H]2O[C@H]2C[C@](C)(N)[C@H](O)[C@H](C)O2)Oc2ccc(cc2Cl)[C@H]1O.O=C([O-])C(F)(F)F (some centres not stated)	41600

Turning now to a further record.
Input: Recall and state the measured AUC(0-t) for CCCCCCCCC(O)C[S+](C)CCCNCc1c(O)cc2c(c1O)-c1cc(ccc1O)[C@H]1NC(=O)[C@@H]3NC(=O)[C@H](CC(N)=O)NC(=O)[C@H](NC(=O)[C@@H](CC(C)C)NC)[C@H](O)c4ccc(c(Cl)c4)Oc4cc3cc(c4O[C@@H]3O[C@H](CO)[C@@H](O)[C@H](O)[C@H]3O[C@H]3C[C@](C)(N)[C@H](O)[C@H](C)O3)Oc3ccc(cc3Cl)[C@@H](O)[C@H](NC1=O)C(=O)N[C@@H]2C(=O)O.O=C([O-])C(F)(F)F (some centres not stated) .
Output: 7050

----------
System: Staphylococcus aureus
assayName: Antibacterial activity against vancomycin-intermediate Staphylococcus aureus Mu50 incubated for 16 to 24 hrs by broth microdilution assay
Type: functional
particulars: time 16-24 hrs
observationType: MIC (µg/mL)
Answers are plain numbers, in µg/mL.

Input: State, for Staphylococcus aureus, measured MIC of the compound listed here: CN[C@H](CC(C)C)C(=O)N[C@H]1C(=O)N[C@@H](CC(N)=O)C(=O)N[C@H]2C(=O)N[C@H]3C(=O)N[C@H](C(=O)N[C@H](C(=O)NCCC[S+](C)CC(O)CCc4ccccc4)c4cc(O)cc(O)c4-c4cc3ccc4O)[C@H](O)c3ccc(c(Cl)c3)Oc3cc2cc(c3O[C@@H]2O[C@H](CO)[C@@H](O)[C@H](O)[C@H]2O[C@H]2C[C@](C)(N)[C@H](O)[C@H](C)O2)Oc2ccc(cc2Cl)[C@H]1O.O=C([O-])C(F)(F)F (some centres not stated)
Output: 2

----------
Provide the recorded MIC for the entries that follow.
System: Acinetobacter baumannii
assayName: Antibacterial activity against carbapenem-resistant Acinetobacter baumannii CRAB-1 clinical isolate incubated for 16 to 24 hrs by broth microdilution assay
Type: functional
particulars: time 16-24 hrs

compound	tgt	observationType	result
CN[C@H](CC(C)C)C(=O)N[C@H]1C(=O)N[C@@H](CC(N)=O)C(=O)N[C@H]2C(=O)N[C@H]3C(=O)N[C@H](C(=O)N[C@H](C(=O)NCCC[S+](C)CC(O)COc4ccc(-c5ccc(Cl)cc5)cc4)c4cc(O)cc(O)c4-c4cc3ccc4O)[C@H](O)c3ccc(c(Cl)c3)Oc3cc2cc(c3O[C@@H]2O[C@H](CO)[C@@H](O)[C@H](O)[C@H]2O[C@H]2C[C@](C)(N)[C@H](O)[C@H](C)O2)Oc2ccc(cc2Cl)[C@H]1O.O=C([O-])C(F)(F)F (some centres not stated)	Acinetobacter baumannii	MIC	64 µg/mL

Now for another entry.
Input: Check Acinetobacter baumannii data and give MIC for CN[C@H](CC(C)C)C(=O)N[C@H]1C(=O)N[C@@H](CC(N)=O)C(=O)N[C@H]2C(=O)N[C@H]3C(=O)N[C@H](C(=O)N[C@H](C(=O)NCCC[S+](C)CC(O)COc4ccc(OC)cc4)c4cc(O)cc(O)c4-c4cc3ccc4O)[C@H](O)c3ccc(c(Cl)c3)Oc3cc2cc(c3O[C@@H]2O[C@H](CO)[C@@H](O)[C@H](O)[C@H]2O[C@H]2C[C@](C)(N)[C@H](O)[C@H](C)O2)Oc2ccc(cc2Cl)[C@H]1O.O=C([O-])C(F)(F)F (some centres not stated) .
Output: 64 µg/mL

----------
assayName: Cytotoxicity against HK-2 cells assessed as cell viability at 50 mg/L incubated for 72 hrs by CCK8 assay relative to control
Format: toxicity, cell-based
particulars: human, at 50 µg/mL, read-out: Activity
observationType: viability at 72 h, 50 mg/L

Input: Quick one: give measured viability at 72 h, 50 mg/L for CN[C@H](CC(C)C)C(=O)N[C@H]1C(=O)N[C@@H](CC(N)=O)C(=O)N[C@H]2C(=O)N[C@H]3C(=O)N[C@H](C(=O)N[C@H](C(=O)O)c4cc(O)c(CNCCC[S+](C)CC(O)COc5ccc(-c6ccc(C(F)(F)F)cc6)cc5)c(O)c4-c4cc3ccc4O)[C@H](O)c3ccc(c(Cl)c3)Oc3cc2cc(c3O[C@@H]2O[C@H](CO)[C@@H](O)[C@H](O)[C@H]2O[C@H]2C[C@](C)(N)[C@H](O)[C@H](C)O2)Oc2ccc(cc2Cl)[C@H]1O.O=C([O-])C(F)(F)F (stereo partly specified)
Output: ~100%

----------
Test system: Acinetobacter baumannii
assayName: Antibacterial activity against carbapenem-resistant Acinetobacter baumannii CRAB-1 clinical isolate incubated for 16 to 24 hrs by broth microdilution assay
Type: functional
particulars: time 16-24 hrs
observationType: MIC (µg/mL)
Answers are plain numbers, in µg/mL.

Input: Tell me MIC reported for CN[C@H](CC(C)C)C(=O)N[C@H]1C(=O)N[C@@H](CC(N)=O)C(=O)N[C@H]2C(=O)N[C@H]3C(=O)N[C@H](C(=O)N[C@H](C(=O)NCCC[S+](C)CC(O)COc4cccc(Cl)c4)c4cc(O)cc(O)c4-c4cc3ccc4O)[C@H](O)c3ccc(c(Cl)c3)Oc3cc2cc(c3O[C@@H]2O[C@H](CO)[C@@H](O)[C@H](O)[C@H]2O[C@H]2C[C@](C)(N)[C@H](O)[C@H](C)O2)Oc2ccc(cc2Cl)[C@H]1O.O=C([O-])C(F)(F)F (some centres not stated)
Output: 64

----------
Give MIC for every item shown.
Tested on: Staphylococcus aureus
assayName: Antibacterial activity against vancomycin-intermediate Staphylococcus aureus Mu50 incubated for 16 to 24 hrs by broth microdilution assay
Assay type: functional
particulars: time 16-24 hrs
One number for each entry, in µg/mL.

compound	MIC [µg/mL]
CN[C@H](CC(C)C)C(=O)N[C@H]1C(=O)N[C@@H](CC(N)=O)C(=O)N[C@H]2C(=O)N[C@H]3C(=O)N[C@H](C(=O)N[C@H](C(=O)NCCC[S+](C)CC(O)COc4ccc(Cl)cc4)c4cc(O)cc(O)c4-c4cc3ccc4O)[C@H](O)c3ccc(c(Cl)c3)Oc3cc2cc(c3O[C@@H]2O[C@H](CO)[C@@H](O)[C@H](O)[C@H]2O[C@H]2C[C@](C)(N)[C@H](O)[C@H](C)O2)Oc2ccc(cc2Cl)[C@H]1O.O=C([O-])C(F)(F)F (stereo partly drawn)	1
CN[C@H](CC(C)C)C(=O)N[C@H]1C(=O)N[C@@H](CC(N)=O)C(=O)N[C@H]2C(=O)N[C@H]3C(=O)N[C@H](C(=O)N[C@H](C(=O)NCCC[S+](C)CC(O)COc4ccccc4Cl)c4cc(O)cc(O)c4-c4cc3ccc4O)[C@H](O)c3ccc(c(Cl)c3)Oc3cc2cc(c3O[C@@H]2O[C@H](CO)[C@@H](O)[C@H](O)[C@H]2O[C@H]2C[C@](C)(N)[C@H](O)[C@H](C)O2)Oc2ccc(cc2Cl)[C@H]1O.O=C([O-])C(F)(F)F (stereo partly drawn)	1

Below: the item to evaluate.
Input: Provide the reported MIC (system: Staphylococcus aureus) for CN[C@H](CC(C)C)C(=O)N[C@H]1C(=O)N[C@@H](CC(N)=O)C(=O)N[C@H]2C(=O)N[C@H]3C(=O)N[C@H](C(=O)N[C@H](C(=O)NCCC[S+](C)CC(O)COc4ccc(C(F)(F)F)cc4)c4cc(O)cc(O)c4-c4cc3ccc4O)[C@H](O)c3ccc(c(Cl)c3)Oc3cc2cc(c3O[C@@H]2O[C@H](CO)[C@@H](O)[C@H](O)[C@H]2O[C@H]2C[C@](C)(N)[C@H](O)[C@H](C)O2)Oc2ccc(cc2Cl)[C@H]1O.O=C([O-])C(F)(F)F (stereo partly drawn)
Output: 1
